Experimental details: label from the status in PepcDB records
Readout label: protein production

# Record sequence, Result
measured = [
    ("MIYGILSKNLGMPTPTFLVCPDVVKFENVGQIAVVNGMVYLGGSVGIDKSGTLHKGLEEQTRQTFDNIRKCLEYANSGLDYIVSLNIFLSTSLSDSEEARFNELYREVFCVPATRPCRCCVRAQLQEGLLVEVVNVVAAQK", "not failed"),
    ("MEQLQVGQVTLTWLNGGVTHLDGGAMFGVVPKPLWSKKYPPNDQNQIELRTDPILVEAGGKRLLIESGIGNGKLTDKQKRNFGVTEESSLDESLAALGLTRGDIDIVIMTHLHFDHACGLTVWEDGRLVPAFPRAAIITSDVEWEEMRAPNIRSRNTYWKENWEPIAEQVIPFTKETEVVSGIRLIHTGGHSAGHAIVLIESDGEMAIHLGDLLGTHAHQNVLWVMAYDDYPMDSIFAKQRWLPYGIERNAWFTFYHDAYYRAVKWREDGTIAEQVKRNRPTLLEHHHHHH", "not failed"),
    ("MVGVRMTKKVLIVEDNELNMKLFHDLLEAQGYETLQTREGLSALSIARENKPDLILMDIQLPEISGLEVTKWLKEDDDLAHIPVVAVTAFAMKGDEERIREGGCEAYISKPISVVHFLETIKRLLERQPA", "not failed"),
]

----------
Experimental details: label from the status in PepcDB records
Readout label: protein production

Examples with answers:
# Record sequence, Result
rows = [
    ("MLTKSVAVITSTIGRPELERAIQSVQQQTYPCQHYVFVDGVQFAEQAKQILDKYPQVIVTYLPMNTGANGWSNSSINAIAPFLAKEDMICYLDDDNWYEPNHVETCLTCLMQNQLDYVYSYRNLINSVNNHFICRDTFESVGPNKALKLDISSNMLNIAGSIQLHNENHIDTNTYFLTRKVALEASQYWYSGRSNDNNVSNWLLFSAYKGICTKTYSVNYLFDPTTFFNTFYQMICQNTPLNSSEQDKIAILEALIRAISDSQASD", "failed"),
    ("MHIKSAIIVVSDRISTGTRENKALPLLQRLMSDELQDYSYELISEVVVPEGYDTVVEAIATALKQGARFIITAGGTGIRAKNQTPEATASFIHTRCEGLEQQILIHGSTHTHLAGLSRGIVGVTGRDDHAALIVNAPSSSGGITDTWAVISPVIPNIFEGLDAS", "not failed"),
    ("MNILLRLQLFFQITGHYASYFLAYIFETIFFLIFVFVSLIAMIYLFRKYMARLQLRYGPNRVGKFGSLQLIADAIKLVGKESILPKLRDDFAYKTAPYIVFIGLVVGFILIPYGDFYWIGSLTITHSDVSLILFFGAIAMMPIGEILAGISSHNKYALLGAMRGVAKDVSFEVPMMLSAIALVMMDSAVNKTPLEFSSLVSTQFIPFGILQPLGLFVFMVAMIARSSYTPFDLSESDSEIVSGYSTEYSGMRFGLFYMGMFGSIFLGSLVISLLYLGGYNGPYSSYAGFIYLLIKGLIMVLISFLIWLSMPRIRIDRFVNFGWKILLPIAIINLIWAGFLTLGVIS", "failed"),
    ("PEAERSTISLTRLHATIQNAPGVLGLVCTIIGEAGGNIVNLRMHHRQSDFFDTDIDVEVRDAKHLTNIQAALRACPSVETVDRTR", "failed"),
    ("AIDHRIQYLAYREIKAAVETNKAKAGSVVVLDAHTGELLALANYPSFNPNNRSGVTPEMMRNRGVIDLFEPGSTMKPLSISLALEHGKANLNTVLDTHSYMIGPATIRDVSPQASLGILGIIQKSSNVGTSKLALLNSPEEFWKHYDALGFGRAPETGFPGEASGRLRDWHKWRPIEQATMSFGYGVSVSLIQMARAYTIFANDGVMLPVALYKTANPMPGKRVLSEKTAHEMRDLLIANSQPGGGAVGGRIIGYSIGGKSGTARKLEGRAYVANKHRALFMGFAPGHSPKVIVAVMIDEPSAGKYYGGAVSAPVFSQVAGGALRVLNIAPD", "failed"),
]

Proceeding to the next sequence to report its protein production.
-- ask Entry "HSIPYKNINLPCYFISPANDGEKRDTVMIVSGFDGTLEEEFLMRGLAAVERGYNVIHFAGPGQMDVFRKYPDTYFEPDFEQVVKRIINYFEFRQEINMAKLTLMGISFGGYFATRAASHEPRIKVLIANSPILDLHAYMCSFVKMDPCEMPDSEDFSINDLPSIPNEVMPPQLKAQTEHLIRRFGQPTFKATFHYLREFTVGDSLNHIKIPCLALLGSGEGGEPGKQFAEFCKITNSAQYEFSDFEGAGSHCQVGNVSYSNAVVYDWLDSL" has what protein production?
-- reply not failed

----------
Experimental details: label from the status in PepcDB records
Readout label: protein production

Check out these entries, answers already filled in.
# Record sequence, Result
rows = [
    ("MITTRTARQCGQADYGWLQARYTFSFGHYFDPKLLGYASLRVLNQEVLAPGAAFQPRTYPKVDILNVILDGEAEYRDSEGNHVQASAGEALLLSTQPGVSYSEHNLSKDKPLTRMQLWLDACPQRENPLIQKLALNMGKQQLIASPEGAMGSLQLRQQVWLHHIVLDKGESANFQLHGPRAYLQSIHGKFHALTHHEEKAALTCGDGAFIRDEANITLVADSPLRALLIDLPV", "not failed"),
    ("MDHAAVLALFDRDMREGARPDGPGARIERVPGVVRQVASEHGWNGVVWSGLDEASADAAIAEQQRYFAGLGREFEWKLYGHDLPEDLGRRLRAAGFTAAPEETLMVAEVADLTLDVEPPDGVRIVPVTDRAGVDLVADVHEKAFGTDSTRMRHQLLAQVTDDPDAVVAVVALAGDEPVSAARMELVPGTRFAGLWGGGTVEGERGRGIYRALVAHRAKVAADRGYRYVQVDATSQSRPVLARLGFEPLTTTTPYVSP", "not failed"),
    ("MGHHHHHHENLYFQSHMTDFVELMNSMSSTFNSDCATSTAEGGTLLNLNLAEDKTLKWRNLANNQFASKEKKHKDKEEEERKEARNQEEIEDIKALLADVVDAAAVKLEEEEAQNAEKVEPHTKCEIEEEGRKEMEYDQDVAKQDSEMEKKQNGKATSITVKMES", "not failed"),
    ("CTNYSLLKLAGDVESNPGPTIFSKASADLNALSTSLGELTGMLKDLKAKAETYSPFYKMAKMLFKLATLAVAAMRTKDPVVVVMLIADFGLEVFDTGFFFSYFQEELQPYMKTIPGKISDLVTDAATAAAQIPKGVYSFVSSFFETPEGAVEKQ", "failed"),
    ("DELEAAAESLEDGSLILEGSTDIRHVSLLLNRDLVDESEEYSTLSGYILFHLGRLPENGQKMHADGYIFEVVTMDGHKIEKVHIVADP", "failed"),
]

-- ask Recorded protein production of "MRKDETSNTSPDISVAQPASALRYHLRPPRRNDGAAIHQLVSECPPLDLNSLYAYLLLCEHHAHTCVVAESPGGRIDGFVSAYLLPTRPDVLFVWQVAVHSRARGHRLGRAMLGHILERQECRHVRHLETTVGPDNQASRRTFAGLAGERGAHVSEQPFFDRQAFGGADHDDEMLLRIGPFTHPPH" , please.
-- reply not failed

-- ask Look up protein production for this sequence: "MKLTLRKKLLEKVENTTETPMLILSVVYVVVALLPDIAVLSPDDLEFLDGLLWIVWGIFATELLVKIFVSPKPLQYMMQNWPDVLIVAMPFLRPLRFLRILLVLPKAWRQTKSVLRQKTFSFIGLTSLSTVLLSAAFVYLVEKGTPSPINSYADALWWAMSTITTVGYGDMYPVTGFGRGVAVFLMLTGITLFGLLTASVASFFVEDDTAKQDHLSLNLLLEKNQQLETQLNQLVETQQPRKRFHLASYRRQLAERETVRKNQKPKRRRIKLPSQDNRNA"
-- reply failed

----------
Experimental details: label from the status in PepcDB records
Readout label: protein production

Field: example entries. Status: answers known.
# Record sequence, protein production
data = [
    ("MDLIHEKVFVNRYHYDVRNHEWEKENGVPKTNVEVTFQLHHKDKEANNTSVVAVLQFMIVRDEFVISGIVSQMNHIQNRIVNNPKDFSQEEAEYLAAPLLDTLQRLTYEVTEIALDRPGINLEF", "not failed"),
    ("LDKMSKKTRQAIRTSKNKGVDIQFGSHELLEDFAELMKKTEDRKGINLRGIDYYQKLLDTYPNNSYITMASLDVAKRLEKIEKECQIAQSERIKSLELNREKKVKQHQGTIDRLNKEIDFLKEAQKAYDRDIIPLAATLTLEFGNTSENIYAGMDDYFKSYSAPIYTWFETAQRAFERGNIWQNMGGIENDLSGGLYHFKSKFEPII", "failed"),
    ("MDLRVLLSGLAYSTIFGLSFLFTKNALDYVTPLTFLSFRFIVAFLSYLLLLITGAVKLGKKPYWKLWKLVLFQPVLYFLFETYGLQRVNSSEAGMIIALIPIVVNLLAPFILKEKGDLLHYLLVGMGFLGVSLIVGFNITPGNIVGKVFMLLAVLSGAMYSVFSRKFSKEFTPTEITFFMMMTGAVFFTLLSLSTGDFRPVFNVDVVIGALYLGVLSSTVAFFLLNYAIRKLSPIFTTLFSNFTTVVSVIAGVVFRNETVGIQQIAGMGLIISSLIIMSLRRSYKRLSRAQKL", "failed"),
    ("MNRTAMRASQKDFENSMNQVKLLKKDPGNEVKLKLYALYKQATEGPCNMPKPGVFDLINKAKWDAWNALGSLPKEAARQNYVDLVSSLSPSLESSSQVEPGTD", "not failed"),
    ("LLGELNEWLQSCRSLEELFAMVSRFMEHILPDAEGSLYVYSNSRDVLDGSAGWNGGAFKDHIHPEACWGLRRGRSYEYGASEVDFVCDHAEPHDGRPYFCFPVLAHGETVGLMHLRAQPGAEAEFSASKRLAQMCAEQISMAIANVRMRDQLHDQ", "failed"),
]

-- ask # protein production lookup, item "MPQVETTSVFRADLLKEMESSTGTAPASTGAENLPAGSALLVVKRGPNAGARFLLDQPTTTAGRHPESDIFLDDVTVSRRHAEFRINEGEFEVVDVGSLNGTYVNREPRNAQVMQTGDEIQIGKFRLVFLAGPAELEHHHHHH"
-- reply not failed

-- ask Which protein production is listed for "MKALASRGTRNHLAGEAAENSVLRDYERRGYHLVRRRWRGRCGEIDLIARSGDEVVFVEVKQSRDFARAAESLGARQMKRLHAAAAEFLAEEPDGQLTPMRFDVALVDGTGRLEIVENAFGHG" ?
-- reply failed

-- ask Which value of protein production has been reported for "MIYLHAIDPIAFSLGPVQVHWYGLMYLAAFFSAWALGRSRILRGRLPGVDMDGFSDLLFYGMLGVVLGGRIGYMLFYAFETFLANPLILFKVWEGGMSFHGGLLGVLIACWLWARKHRLHFFDVMDFVAPLVPLGLGFGRLGNFVGGELWGKFTQAGWGVIFPHAPELADRLPAQIQAQYAAGALNQFARHPSQLYEAALEGVVMFVVLWTFSMKPRARYAVSGLFALLYGVFRFIVEFVRVPDAPIGYLAFNWLTMGQILSLPLVAVGLVLLAMSRRAPVLQPVLPVPAGVEAAK" in the records?
-- reply failed
